Tested on: Pseudomonas aeruginosa ATCC 27853
Assay: ≥ marks a high value that may be exact or a test limit, other limits are often not marked, values filed in µg/mL are converted to µM
measured.metric: MIC (µM)
Quick note: give the figure in µM, leave out the unit.

smiles.code: CC(C)C[C@H](NC(=O)[C@@H](NC(=O)[C@H](CCC(N)=O)NC(=O)[C@H](CCCCN)NC(=O)[C@H](Cc1cnc[nH]1)NC(=O)[C@H](CC(C)C)NC(=O)[C@H](C)NC(=O)[C@@H](NC(=O)[C@H](CC(C)C)NC(=O)[C@H](CCCCN)NC(=O)[C@H](CC(C)C)NC(=O)[C@@H](N)CCCCN)C(C)C)C(C)C)C(N)=O
target.system: Pseudomonas aeruginosa ATCC 27853
MIC, µM: 18
--
smiles.code: CC[C@H](C)[C@H](NC(=O)[C@H](C)NC(=O)[C@@H](N)CCCCN)C(=O)N[C@H](C(=O)N[C@@H](CCC(N)=O)C(=O)N[C@@H](CCCN=C(N)N)C(=O)N[C@H](C(=O)N[C@@H](CCCCN)C(=O)N[C@@H](CC(=O)O)C(=O)N[C@@H](Cc1ccccc1)C(=O)N[C@@H](CC(C)C)C(=O)N[C@@H](CCCN=C(N)N)C(=O)O)[C@@H](C)CC)C(C)C
target.system: Pseudomonas aeruginosa ATCC 27853
MIC, µM: 40
--
smiles.code: CC(C)C[C@H](NC(=O)[C@H](CO)NC(=O)[C@@H](N)CCCCN)C(=O)N[C@@H](CCCN=C(N)N)C(=O)N[C@@H](CCCN=C(N)N)C(=O)N[C@H](C(=O)N[C@@H](Cc1c[nH]c2ccccc12)C(=O)N[C@@H](CCCN=C(N)N)C(=O)N[C@@H](CO)C(=O)N[C@@H](Cc1c[nH]c2ccccc12)C(=O)N[C@@H](CCCN=C(N)N)C(N)=O)C(C)C
target.system: Pseudomonas aeruginosa ATCC 27853
MIC, µM: 40

The molecule "C[C@H](NC(=O)[C@H](C)NC(=O)[C@H](Cc1ccccc1)NC(=O)[C@H](C)NC(=O)[C@H](C)NC(=O)[C@H](Cc1ccccc1)NC(=O)[C@H](C)NC(=O)[C@H](C)NC(=O)[C@H](Cc1ccccc1)NC(=O)[C@H](C)NC(=O)[C@H](C)NC(=O)[C@H](CCCCN)NC(=O)[C@H](CCCCN)NC(=O)[C@H](CCCCN)NC(=O)[C@H](CCCCN)NC(=O)[C@H](CCCCN)NC(=O)[C@@H](N)CCCCN)C(N)=O" showed MIC equal to 16
